procedureText: In vitro stability in rat plasma
Format: in vitro ADME
measurementContext: male, Sprague-Dawley; rat plasma, 1000 ng/mL, 37 °C, incubation 3 hr, LC/MS/MS; mean ± S.E.M. of 5; LLOQ 12.5 ng/mL P3V8; read-out: Percentage of remained
Residues, ends and D or L forms follow the SMILES beside them. *: point of attachment. Palmitoyl = CCCCCCCCCCCCCCCC(=O)*
measurementType: remaining at 3 h, 1000 ng/mL (%)
Kindly provide the numeric value in % only, without the unit symbol.

# get_value(readout='remaining at 3 h, 1000 ng/mL', item= CCCCCCCCCCCCCCCC(=O)N[C@@H](CC(=O)O)C(=O)NCC(=O)N[C@@H](CCCCN)C(=O)N[C@@H](CO)C(=O)N[C@@H](CCCCN)C(=O)NCC(=O)N[C@H](C(=O)N[C@@H](C)C(=O)N[C@@H](Cc1ccc(O)cc1)C(=O)N[C@H](C(=O)N[C@@H](CCC(=O)O)C(=O)N[C@@H](Cc1ccccc1)C(=O)N[C@@H](CCCCN)C(N)=O)[C@@H](C)CC)[C@@H](C)CC [L1P3V8] (Palmitoyl-DGKSKGIAYIEFK-NH2) ) 81.2
